B1: LINE1-mini (parent)
chain: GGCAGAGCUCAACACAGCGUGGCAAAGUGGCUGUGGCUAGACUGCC

# Variants of: B1
# Test Method Notes: self-cleavage, relative activity (ratio to wild type); higher = more cleavage; in vitro, sequencing; the parent is a self-cleaving ribozyme
// thresholds for self-cleavage classes: L = under 0.07, M = from 0.07 up to 0.2, H = 0.2 and over

Variant Name: A24U U34C
Qualitative Label: M

Variant Name: A11C A14C
Qualitative Label: L

Variant Name: G33C A39G
Qualitative Label: L

Variant Name: G17U G19C
Qualitative Label: H

Variant Name: G19A G40A
Qualitative Label: M

Variant Name: G1A G2C
Qualitative Label: H

Variant Name: G1A G2U
Qualitative Label: H

Variant Name: A24U A39C
Qualitative Label: H

Variant Name: G7C G27A
Qualitative Label: M

Variant Name: A24C U43G
Qualitative Label: H

Variant Name: A11G A14U
Qualitative Label: L

Variant Name: G30A U38A
Qualitative Label: H

Variant Name: G5C G21C
Qualitative Label: L

Variant Name: A25U G40C
Qualitative Label: M

Variant Name: A25G C45U
Qualitative Label: H

Variant Name: A11U A16U
Qualitative Label: L

Variant Name: A14G U28G
Qualitative Label: H

Variant Name: C15G C46U
Qualitative Label: L

Variant Name: G35C U43A
Qualitative Label: M

Variant Name: G22A A26U
Qualitative Label: H

Variant Name: U9C U43C
Qualitative Label: L

Variant Name: G17C G36A
Qualitative Label: M

Variant Name: C13A G30U
Qualitative Label: M

Variant Name: C15G G19C
Qualitative Label: M

Variant Name: C13U A14U
Qualitative Label: M

Variant Name: A4C G33U
Qualitative Label: L

Variant Name: C10A A16C
Qualitative Label: L

Variant Name: G19A U20A
Qualitative Label: H

Variant Name: G19C A26C
Qualitative Label: H

Variant Name: A14G A25U
Qualitative Label: H

Variant Name: A6G U9A
Qualitative Label: M

Variant Name: G17C G27A
Qualitative Label: H

Variant Name: C31G A39C
Qualitative Label: M

Variant Name: A26C C46U
Qualitative Label: H

Variant Name: U20G C45A
Qualitative Label: H

Variant Name: C10A U43C
Qualitative Label: L

Variant Name: C31U G36A
Qualitative Label: M

Variant Name: G7A C23G
Qualitative Label: H

Variant Name: G17C G29C
Qualitative Label: H

Variant Name: U9A C46U
Qualitative Label: M

Variant Name: G1C C10A
Qualitative Label: L

Variant Name: G27C C37G
Qualitative Label: L

Variant Name: G2U A12C
Qualitative Label: L

Variant Name: A14C C15A
Qualitative Label: M

Variant Name: A16C G36C
Qualitative Label: L

Variant Name: C3G G36A
Qualitative Label: H

Variant Name: U32A G36C
Qualitative Label: M

Variant Name: G30U C37G
Qualitative Label: L

Variant Name: A12G G29U
Qualitative Label: L

Variant Name: C3U U20A
Qualitative Label: H

Variant Name: G1A C8U
Qualitative Label: H

Variant Name: G2C G29C
Qualitative Label: L

Variant Name: U34G U38C
Qualitative Label: M

Variant Name: C23A A25G
Qualitative Label: H

Variant Name: C13G G40C
Qualitative Label: M

Variant Name: G1A C42G
Qualitative Label: L

Variant Name: U9A G19U
Qualitative Label: M

Variant Name: A25G U43C
Qualitative Label: M

Variant Name: A14U U28G
Qualitative Label: H

Variant Name: A14U C46A
Qualitative Label: H

Variant Name: G1U G40C
Qualitative Label: L

Variant Name: G2U C42G
Qualitative Label: L

Variant Name: G21C G29A
Qualitative Label: H

Variant Name: G1U C37U
Qualitative Label: L

Variant Name: U32C C42G
Qualitative Label: M

Variant Name: A6U C45U
Qualitative Label: H

Variant Name: U28A A39C
Qualitative Label: M

Variant Name: A6G G17A
Qualitative Label: M

Variant Name: A12G C15G
Qualitative Label: L

Variant Name: A14U A41C
Qualitative Label: L

Variant Name: A12U G40C
Qualitative Label: L

Variant Name: A16U G30A
Qualitative Label: M

Variant Name: A12C U34G
Qualitative Label: L

Variant Name: G22U A26U
Qualitative Label: H

Variant Name: A6G C37A
Qualitative Label: L

Variant Name: G21C C37U
Qualitative Label: L

Variant Name: G27U C31U
Qualitative Label: H

Variant Name: C15A G35U
Qualitative Label: M

Variant Name: G19U C31A
Qualitative Label: H

Variant Name: C10U G27U
Qualitative Label: H
